// values below are reported IC50
system: CYP3A4; assay: in vitro; conditions: microsomes

In the examples that follow, each entry is paired with its recorded IC50.
| Molecule | IC50 |
| --- | --- |
| C[C@@H]1OC(OC[C@H]2OC(Oc3c(-c4ccc(O)cc4)oc4cc(O)c(OC5O[C@H](CO)[C@@H](O)[C@H](O)[C@H]5O)c(O)c4c3=O)[C@H](O)[C@@H](O)[C@@H]2O)[C@H](O)[C@H](O)[C@H]1O (stereo partly drawn) [A12] | > 200 µM |
| O=c1c(OC2O[C@H](CO)[C@@H](O)[C@H](O)[C@H]2O)c(-c2ccc(O)cc2)oc2cc(OC3O[C@H](CO)[C@@H](O)[C@H](O)[C@H]3O)c(OC3O[C@H](CO)[C@@H](O)[C@H](O)[C@H]3O)c(O)c12 (stereo partly drawn) [A10] | > 200 µM |

Continue with the molecule presented below.
Find IC50 (CYP3A4) for the entry O=C(O)[C@H]1OC(Oc2cc3oc(-c4ccc(O)cc4)cc(=O)c3c(O)c2OC2O[C@H](CO)[C@@H](O)[C@H](O)[C@H]2O)[C@H](O)[C@@H](O)[C@@H]1O (stereo partly drawn) [A15]
> 200 µM
